system under test: T1, naked peptide TSPIPNMADD (human)
T1 peptide: TSPIPNMADD
assay text: ELISA naked peptide; scFv 1 ug/mL; repI
result type: OD450 (OD)
Numeric only. Scale: OD

The following binders have reported results that may help.
binder="Comparative antibody 2 (Comp-2) scFv, 243LO326 (VH SEQ ID NO: 51 and VL SEQ ID NO: 52 of WO 2022/195028 A2), His-tagged (scFv) scFv: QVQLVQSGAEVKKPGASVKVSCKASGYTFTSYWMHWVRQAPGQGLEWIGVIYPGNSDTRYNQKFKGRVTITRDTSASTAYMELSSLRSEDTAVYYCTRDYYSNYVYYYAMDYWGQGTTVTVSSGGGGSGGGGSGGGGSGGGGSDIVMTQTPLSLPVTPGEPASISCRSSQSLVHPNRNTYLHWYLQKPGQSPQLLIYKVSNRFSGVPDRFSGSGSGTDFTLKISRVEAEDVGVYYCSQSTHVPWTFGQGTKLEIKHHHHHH" result_type=OD450 reported=0.02
binder="CCR9_HUM2 scFv (humanized anti-CCR9 scFv, SEQ ID NO: 17 with C-terminal 6xHis tag) (scFv) scFv: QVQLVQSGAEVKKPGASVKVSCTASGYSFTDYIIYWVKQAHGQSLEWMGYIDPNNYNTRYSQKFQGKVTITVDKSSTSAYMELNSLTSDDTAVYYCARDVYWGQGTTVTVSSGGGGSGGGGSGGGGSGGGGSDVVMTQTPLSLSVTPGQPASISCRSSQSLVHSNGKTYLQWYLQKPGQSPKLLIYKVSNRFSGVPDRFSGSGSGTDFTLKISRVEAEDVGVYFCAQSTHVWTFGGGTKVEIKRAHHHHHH" result_type=OD450 reported=0.03
binder="Comparative antibody 1 (Comp-1) scFv, SEQ ID NO: 10 from WO2023/037125 A1, His-tagged (scFv) scFv: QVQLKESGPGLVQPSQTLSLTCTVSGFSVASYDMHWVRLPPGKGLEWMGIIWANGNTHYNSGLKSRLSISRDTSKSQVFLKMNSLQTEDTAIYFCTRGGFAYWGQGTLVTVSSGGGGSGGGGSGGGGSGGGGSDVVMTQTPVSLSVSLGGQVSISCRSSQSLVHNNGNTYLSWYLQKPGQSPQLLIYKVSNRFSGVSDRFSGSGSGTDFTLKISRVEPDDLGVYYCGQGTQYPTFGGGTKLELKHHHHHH" result_type=OD450 reported=0.05

Okay, next one:
Problem: Could you share which OD450 value was measured for Comparative antibody 3 (Comp-3) scFv, SR_92R (Somovilla-Crespo et al. 2018), His-tagged (scFv) scFv: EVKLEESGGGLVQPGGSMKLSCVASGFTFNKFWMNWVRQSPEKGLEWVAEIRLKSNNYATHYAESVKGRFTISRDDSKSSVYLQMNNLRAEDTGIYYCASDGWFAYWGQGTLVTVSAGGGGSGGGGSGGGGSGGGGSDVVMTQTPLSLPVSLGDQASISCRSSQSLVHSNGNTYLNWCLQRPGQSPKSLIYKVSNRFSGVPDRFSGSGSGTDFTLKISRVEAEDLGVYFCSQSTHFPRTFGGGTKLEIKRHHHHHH ?
Solution: 0.02

Recorded values, source patent US20260232732A1.
